Tested on: mouse melanoma B16 cells
Assay: Influence of extract powder and other skin-whitening ingredients on melanin formation (Test 2 for in vitro skin-whitening effect, Experiment 4)
Format: cell-based
Parameters: key: −: Unchanged; ±: Slight inhibition of blackening; +: Positive inhibition of blackening; ++: Clear inhibition of blackening; +++: Complete inhibition of blackening
Settings: ingredient 0.5% in combination with extract powder of indigo plant; 72 hours
MEASURE: Judgement, 1.25% extract powder of indigo plant

Previously resolved entries follow.
1) CCCCC/C=C\C/C=C\CCCCCCCC(=O)O; ++
2) COc1cc(CCC(=O)CC(=O)CCc2ccc(O)c(OC)c2)ccc1O [Tetrahydrocurcumin]; ++
3) O=c1oc2c(O)c(O)cc3c(=O)oc4c(O)c(O)cc1c4c23; ++
4) OC[C@H]1O[C@@H](Oc2ccc(O)cc2)[C@H](O)[C@@H](O)[C@@H]1O; +++

Now for another entry.
Lab book: Judgement, 1.25% extract powder of indigo plant of "CCCCc1ccc(O)cc1O" noted as +++
